Tested on: Sprague-Dawley rats
Assay: Pharmacological effect and adverse reactions under the equivalent dose (2ED50), Group D compounds
Assay type: in vivo
Conditions: equivalent dose (2 × ED50), number of rats of n = 8
Mark 0 for Adverse reaction: Systemic stiffness, Convulsions, Opisthotonus values under 2, and 1 for everything at or above.

Solved entries (count: 5):
* CCOC(OC)(OCC)C(=O)c1cncn1[C@H](C)c1ccccc1 | 0
* COC(OC)(OC)C(=O)c1cnnn1[C@H](C)c1ccccc1 | 0
* COC(OC)(OC)C(=O)c1c(F)cnn1[C@H](C)c1ccccc1 | 0
* COC(OC)(OC)C(=O)c1cncn1[C@H](C)c1ccccc1 | 1
* CCOC(OCC)C(=O)c1cncn1[C@H](C)c1ccccc1 | 1

## Task API: above_or_equal(metric=Adverse reaction: Systemic stiffness, Convulsions, Opisthotonus, cutoff=2) for item `C=CCOC(OC)(OC)C(=O)c1ccnn1[C@H](C)c1ccccc1`
## Result 0

## Task API: above_or_equal(metric=Adverse reaction: Systemic stiffness, Convulsions, Opisthotonus, cutoff=2) for item `CCOC(=O)C(=O)c1cncn1[C@H](C)c1ccccc1`
## Result 0

## Task API: above_or_equal(metric=Adverse reaction: Systemic stiffness, Convulsions, Opisthotonus, cutoff=2) for item `COC(=O)C(=O)c1cncn1[C@H](C)c1ccccc1`
## Result 0

## Task API: above_or_equal(metric=Adverse reaction: Systemic stiffness, Convulsions, Opisthotonus, cutoff=2) for item COC(=O)C1(OC(=O)c2cncn2[C@H](C)c2ccccc2)CC1 [CPMM, cyclopropyl methoxycarbonyl metamidate, reference compound]
## Result 0

## Task API: above_or_equal(metric=Adverse reaction: Systemic stiffness, Convulsions, Opisthotonus, cutoff=2) for item `CC(C)CCOC(=O)C(=O)c1cncn1[C@H](C)c1ccccc1`
## Result 0

---

Test system: Sprague-Dawley rats
Experiment: animal or person
Format: in vivo
Conditions: rats
Each entry below carries its recorded Approximate therapeutic index.

Take a look at these entries with their results.
* CC#CCOCC(=O)c1cncn1[C@H](C)c1ccccc1 [Compound C27] | >16.6
* CC(C)c1cccc(C(C)C)c1O [Propofol, propofol, reference compound] | 4.0
* CC#CCOCC(=O)c1c(F)ncn1[C@H](C)c1ccccc1 [Compound C69] | >19.2
* C[C@H](c1ccccc1)n1cncc1C(=O)COCC1CC1 [Compound C46] | >2.4

Note to self: Approximate therapeutic index recorded for CC1OC1C(=O)c1cncn1[C@H](C)c1ccccc1 (stereo partly drawn) [Compound C56] was >16.6

Note to self: Approximate therapeutic index recorded for COC(=O)C1(OC(=O)c2cncn2[C@H](C)c2ccccc2)CC1 [CPMM, cyclopropyl methoxycarbonyl metamidate, reference compound] was 42.0

---

Test system: Sprague-Dawley rats
Experiment: animal or person
Details: rats
Each entry below carries its recorded Approximate therapeutic index.

Take a look at these entries with their results.
* C[C@H](c1ccccc1)n1nnc(I)c1C(=O)OCC1CC1 | >20
* C[C@H](c1ccccc1)n1nncc1C(=O)OC1CCC1 | >71
* C[C@H](c1ccccc1)n1nncc1C(=O)OCC1CC1 | >31
* CCOC(=O)c1nnn([C@H](C)c2ccccc2)c1C(F)(F)F | >8
* CC(=O)C1=C(OC(=O)c2c(F)nnn2[C@H](C)c2ccccc2)CCCC1 | >9

Note to self: Approximate therapeutic index recorded for `C[C@H](c1ccccc1)n1nnc(Br)c1C(=O)OC1CCC1` was >10

Note to self: Approximate therapeutic index recorded for `C=CCOC(=O)c1c(Br)nnn1[C@H](C)c1ccccc1` was >20

Note to self: Approximate therapeutic index recorded for `CO[C@H]1C[C@@H](OC(=O)c2c(F)nnn2[C@H](C)c2ccccc2)C1` was >6

---

System: Sprague-Dawley rats
Test: Pharmacological effect and adverse reactions under the equivalent dose (2ED50), Group D compounds
Format: in vivo
Details: equivalent dose (2 × ED50), number of rats of n = 8
Each entry below carries its recorded Adverse reaction: Tremor.
Answer with the value's number alone.

- COC(OC)(OC)C(=O)c1cncn1[C@H](C)c1ccccc1: 0
- COC(OC)(OC)C(=O)c1c(F)cnn1[C@H](C)c1ccccc1: 4
- COC(=O)C(=O)c1cncn1[C@H](C)c1ccccc1: 0
- CCOC(OCC)(OCC)C(=O)c1cncn1[C@H](C)c1ccccc1: 0
- COC(OC)(OC)C(=O)c1cc(F)nn1[C@H](C)c1ccccc1: 0

Note to self: Adverse reaction: Tremor recorded for CCSC(OC)(OC)C(=O)c1ccnn1[C@H](C)c1ccccc1 [Compound D2] was 8

Note to self: Adverse reaction: Tremor recorded for `CCOC(=O)C(=O)c1cncn1[C@H](C)c1ccccc1` was 1

Note to self: Adverse reaction: Tremor recorded for `CC(C)CCOC(=O)C(=O)c1cncn1[C@H](C)c1ccccc1` was 0

Note to self: Adverse reaction: Tremor recorded for `C=CCOCC(OC)(OC)C(=O)c1cncn1[C@H](C)c1ccccc1` was 0

Note to self: Adverse reaction: Tremor recorded for `C[C@H](c1ccccc1)n1cncc1C(=O)C(=O)OCC(C)(C)C` was 0

Note to self: Adverse reaction: Tremor recorded for `COC(OC)(OCC(C)(C)C)C(=O)c1ccnn1[C@H](C)c1ccccc1` was 2

Note to self: Adverse reaction: Tremor recorded for `CCOC(OCC)C(=O)c1cncn1[C@H](C)c1ccccc1` was 1

Note to self: Adverse reaction: Tremor recorded for COC(=O)C1(OC(=O)c2cncn2[C@H](C)c2ccccc2)CC1 [CPMM, cyclopropyl methoxycarbonyl metamidate, reference compound] was 2

Note to self: Adverse reaction: Tremor recorded for `C=CCOC(OC)(OC)C(=O)c1ccnn1[C@H](C)c1ccccc1` was 1

---

System: Sprague-Dawley rats
Assay: Pharmacological effect and adverse reactions under the equivalent dose (2ED50), Group D compounds
Format: in vivo
Details: equivalent dose (2 × ED50), number of rats of n = 8
Measured Parameter: Adverse reaction: Red urine
Answer with the value's number alone.

Take a look at these entries with their results.
• CCOC(=O)C(=O)c1cncn1[C@H](C)c1ccccc1 [Compound D81] = 8
• C=CCOC(OC)(OC)C(=O)c1ccnn1[C@H](C)c1ccccc1 [Compound D7] = 8
• COC(OC)C(=O)c1cncn1[C@H](C)c1ccccc1 [Compound D87] = 8
• COC(=O)C(=O)c1cncn1[C@H](C)c1ccccc1 [Compound D80] = 8
• C[C@H](c1ccccc1)n1cncc1C(=O)C(=O)OCC(C)(C)C [Compound D86] = 8
• COC(OC)(OC)C(=O)c1cnnn1[C@H](C)c1ccccc1 [Compound D42] = 8
• COC(OC)(OC)C(=O)c1ccnn1[C@H](C)c1ccccc1 [Compound D1] = 8
• COC(OC)(OC)C(=O)c1c(F)cnn1[C@H](C)c1ccccc1 [Compound D29] = 8
• CCOC(OCC)C(=O)c1cncn1[C@H](C)c1ccccc1 [Compound D88] = 8
• CCOC(OC)(OCC)C(=O)c1cncn1[C@H](C)c1ccccc1 [Compound D79] = 8

Note to self: Adverse reaction: Red urine recorded for COC(OC)(OC)C(=O)c1c(F)ncn1[C@H](C)c1ccccc1 [Compound D93] was 8

Note to self: Adverse reaction: Red urine recorded for COC(OC)(OC)C(=O)c1cncn1[C@H](C)c1ccccc1 [Compound D77] was 8

Note to self: Adverse reaction: Red urine recorded for COC(OC)(OC(C)C)C(=O)c1ccnn1[C@H](C)c1ccccc1 [Compound D4] was 8

Note to self: Adverse reaction: Red urine recorded for CCOC(OCC)(OCC)C(=O)c1cncn1[C@H](C)c1ccccc1 [Compound D76] was 8

Note to self: Adverse reaction: Red urine recorded for CCOC(OCC)C(=O)c1c(F)ncn1[C@H](C)c1ccccc1 [Compound D101] was 8

---

Test system: Sprague-Dawley rats
Test: animal or person
Details: rats
Each entry below carries its recorded Minimal lethal dose.

Take a look at these entries with their results.
- C[C@H](c1ccccc1)n1nncc1C(=O)OC1CCC1: >10 mg/kg
- COC(=O)C1(OC(=O)c2cncn2[C@H](C)c2ccccc2)CC1 [CPMM, cyclopropyl methoxycarbonyl metamidate, reference compound]: >7.8 mg/kg
- C=C=CC1(OC(=O)c2cnnn2[C@H](C)c2ccccc2)COC1: >6 mg/kg
- CC(=O)C1=C(OC(=O)c2c(F)nnn2[C@H](C)c2ccccc2)CCCC1: >13 mg/kg

Note to self: Minimal lethal dose recorded for `CO[C@H]1C[C@@H](OC(=O)c2cnnn2[C@H](C)c2ccccc2)C1` was >8 mg/kg

Note to self: Minimal lethal dose recorded for `C[C@H](c1ccccc1)n1nnc(I)c1C(=O)OC1CCC1` was >12 mg/kg

Note to self: Minimal lethal dose recorded for `CO[C@H]1C[C@@H](OC(=O)c2c(F)nnn2[C@H](C)c2ccccc2)C1` was >6 mg/kg

Note to self: Minimal lethal dose recorded for `C=CCOC(=O)c1c(Br)nnn1[C@H](C)c1ccccc1` was >14 mg/kg

Note to self: Minimal lethal dose recorded for CCOC(=O)c1cncn1C(C)c1ccccc1 (stereo not drawn) [Etomidate, reference compound] was 12.75 mg/kg

Note to self: Minimal lethal dose recorded for `CCOC(=O)c1c(I)nnn1[C@H](C)c1ccccc1` was >16 mg/kg

Note to self: Minimal lethal dose recorded for `C[C@H](c1ccccc1)n1nncc1C(=O)OC1(C)COC1` was >7 mg/kg

Note to self: Minimal lethal dose recorded for `CCOC(=O)c1nnn([C@H](C)c2ccccc2)c1C(F)(F)F` was >14 mg/kg

Note to self: Minimal lethal dose recorded for CCOC(=O)c1c(Br)nnn1[C@H](C)c1ccccc1 [Compound B118] was >17 mg/kg

Note to self: Minimal lethal dose recorded for `C=C=CC1(OC(=O)c2c(Br)nnn2[C@H](C)c2ccccc2)COC1` was >13 mg/kg

Note to self: Minimal lethal dose recorded for `C=CC1(OC(=O)c2c(F)nnn2[C@H](C)c2ccccc2)COC1` was >14 mg/kg

Note to self: Minimal lethal dose recorded for `COC(=O)C1=C(OC(=O)c2c(F)nnn2[C@H](C)c2ccccc2)CCC1` was >5 mg/kg

Note to self: Minimal lethal dose recorded for C=CC(CC)OC(=O)c1cnnn1[C@H](C)c1ccccc1 (stereo partly drawn) was >1 mg/kg

Note to self: Minimal lethal dose recorded for `CCOC(=O)c1c(C(F)(F)F)nnn1[C@H](C)c1ccccc1` was >18 mg/kg

Hello, the source for this data is patent US12570612B2, in case you need it.
